Data credit: patent US20180057604A1

Entries and their Kd values follow.
Biological target: T1, murine BACE1 ECD
T1 construct: analyte of the Octet assay (200 nM) and enzyme of the first short substrate assay
T1 sequence (single chain, as listed by the source limits assumed): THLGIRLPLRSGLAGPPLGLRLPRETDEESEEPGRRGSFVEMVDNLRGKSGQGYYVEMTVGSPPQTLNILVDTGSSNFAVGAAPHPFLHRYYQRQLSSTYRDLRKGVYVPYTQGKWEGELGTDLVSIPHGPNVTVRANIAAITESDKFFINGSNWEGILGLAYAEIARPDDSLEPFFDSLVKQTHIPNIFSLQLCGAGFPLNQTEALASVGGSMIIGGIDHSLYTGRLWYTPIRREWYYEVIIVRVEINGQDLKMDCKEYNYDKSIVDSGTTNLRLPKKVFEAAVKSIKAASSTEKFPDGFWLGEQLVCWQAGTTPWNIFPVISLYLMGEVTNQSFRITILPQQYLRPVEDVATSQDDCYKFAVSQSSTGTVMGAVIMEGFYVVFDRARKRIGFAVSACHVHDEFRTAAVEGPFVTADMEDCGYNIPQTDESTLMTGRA
Experiment: Octet, pH 7.5;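 further: antibodies captured on anti-human capture sensor tips, dissociation monitored in PBS with BSA, Kd obtained from kinetic fit to a one-to-one binding model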

[
  {
    "binder": "5988 (antibody, V domains shown, anti-BACE1 IgG) VH: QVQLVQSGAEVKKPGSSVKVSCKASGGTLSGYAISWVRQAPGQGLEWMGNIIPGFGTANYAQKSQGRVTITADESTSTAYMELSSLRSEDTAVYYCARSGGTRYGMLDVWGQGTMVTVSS VL: GIVMTQSPATLSVSPGERATLSCRASQSVGSNLAWYQQKPGQAPRLLIYGASTRATGIPARFSGSGSGTEFTLTISSLQSEDFAVYYCQQLYTWPPRTFGGGTKVEIK",
    "Kd": "< 0.29 nM"
  },
  {
    "binder": "6285 (antibody, V domains shown, anti-BACE1 IgG) VH: QLQLQESGPGLVKPSETLSLTCTVSGGSTSSSSYYWGWIRQPPGKGLEWIGSIYRSGSTYYNPSLKSRVTISVDTSKNQFSLKLSSVTAADTAVYYCARVGHGISYFDLWGRGTLVTVSS VL: EIVLTQSPATLSLSPGERATLSCRASQSVSSYLAWYQQKPGQAPRLLIYDASSRATGIPARFSGSGSGTDFTLTISSLEPEDFAVYYCQQSLTWPPRTFGGGTKVEIK",
    "Kd": "< 0.28 nM"
  },
  {
    "binder": "6299 (antibody, V domains shown, anti-BACE1 IgG) VH: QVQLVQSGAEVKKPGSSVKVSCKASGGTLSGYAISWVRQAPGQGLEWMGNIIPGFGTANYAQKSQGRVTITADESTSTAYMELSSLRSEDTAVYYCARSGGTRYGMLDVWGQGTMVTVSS VL: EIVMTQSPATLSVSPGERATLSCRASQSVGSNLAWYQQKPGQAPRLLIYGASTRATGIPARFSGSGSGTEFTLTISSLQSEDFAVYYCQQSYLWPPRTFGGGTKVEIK",
    "Kd": "< 0.41 nM"
  },
  {
    "binder": "anti-BACE1 antibody 6266 (antibody, V domains shown, Fully human antibody) VH: EVQLVQSGAEVKKPGSSVKVSCKASGGTLSGYGVSWVRQAPGQGLEWMGNIIPGFGTANYAQKFQGRVTITADESTSTAYMELSSLRSEDTAVYYCARSGGTKYGMLDVWGQGTMVTVSS VL: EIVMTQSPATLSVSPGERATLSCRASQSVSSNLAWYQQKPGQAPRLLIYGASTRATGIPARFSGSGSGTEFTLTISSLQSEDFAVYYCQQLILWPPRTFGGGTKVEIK",
    "Kd": "< 0.31 nM"
  },
  {
    "binder": "6275 (antibody, V domains shown, anti-BACE1 IgG) VH: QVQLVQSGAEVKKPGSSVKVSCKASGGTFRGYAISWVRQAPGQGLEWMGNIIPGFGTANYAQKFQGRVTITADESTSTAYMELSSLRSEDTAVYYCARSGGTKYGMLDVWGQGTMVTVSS VL: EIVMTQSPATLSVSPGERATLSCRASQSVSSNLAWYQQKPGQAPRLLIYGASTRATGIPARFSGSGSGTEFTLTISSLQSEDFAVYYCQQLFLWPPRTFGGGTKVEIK",
    "Kd": "< 0.49 nM"
  },
  {
    "binder": "6291 (antibody, V domains shown, anti-BACE1 IgG) VH: QLQLQESGPGLVKPSETLSLTCTVSGGSISSSSYYWGWIRQPPGKGLEWIGMIYYSGSTWYNPSLKSRVTISVDTSKNQFSLKLSSVTAADTAVYYCARVGHGVSYFDLWGRGTLVTVSS VL: EIVLTQSPATLSLSPGERATLSCRASQSVSSYLAWYQQKPGQAPRLLIYGASKRATGIPARFSGSGSGTDFTLTISSLEPEDFAVYYCQQVYTWPPRTFGGGTKVEIK",
    "Kd": "< 0.26 nM"
  },
  {
    "binder": "6298 (antibody, V domains shown, anti-BACE1 IgG) VH: QLQLQESGPGLVKPSETLSLTCTVSGGSISWSSYYWSWIRQPPGKGLEWIGNIYYSGSTYYNPSLKSRVTISVDTSKNQFSLKLSSVTAADTAVYYCARLGHGYNYFDLWGRGTLVTVSS VL: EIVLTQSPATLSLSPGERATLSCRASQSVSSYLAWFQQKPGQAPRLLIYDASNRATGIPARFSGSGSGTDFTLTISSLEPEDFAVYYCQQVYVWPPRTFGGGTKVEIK",
    "Kd": "0.46 nM"
  },
  {
    "binder": "6270 (antibody, V domains shown, anti-BACE1 IgG) VH: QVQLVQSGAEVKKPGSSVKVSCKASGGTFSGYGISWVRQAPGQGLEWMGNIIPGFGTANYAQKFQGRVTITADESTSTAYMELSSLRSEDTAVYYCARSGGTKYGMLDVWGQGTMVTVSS VL: EIVMTQSPATLSVSPGERATLSCRASQSVSSNLAWYQQKPGQAPRLLIYGASTRATGIPARFSGSGSGTEFTLTISSLQSEDFAVYYCQQLLLWPPRTFGGGTKVEIK",
    "Kd": "< 0.4 nM"
  },
  {
    "binder": "6300 (antibody, V domains shown, anti-BACE1 IgG) VH: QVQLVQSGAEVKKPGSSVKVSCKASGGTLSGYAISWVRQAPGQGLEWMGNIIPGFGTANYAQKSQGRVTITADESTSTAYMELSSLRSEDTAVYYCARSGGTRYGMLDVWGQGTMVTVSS VL: EIVLTQSPATLSVSPGERATLSCRASQSVGSNLAWYQQKPGQAPRLLIYGASTRATGIPARFSGSGSGTEFTLTISSLQSEDFAVYYCQQSFLWPPRTFGGGTKVEIK",
    "Kd": "< 0.68 nM"
  },
  {
    "binder": "6276 (antibody, V domains shown, anti-BACE1 IgG) VH: QVQLVQSGAEVKKPGSSVKVSCKASGGTFRGYAISWVRQAPGQGLEWMGNIIPGLSTANYAQKFQGRVTITADESTSTAYMELSSLRSEDTAVYYCARSGGTKYGMLDVWGQGTMVTVSS VL: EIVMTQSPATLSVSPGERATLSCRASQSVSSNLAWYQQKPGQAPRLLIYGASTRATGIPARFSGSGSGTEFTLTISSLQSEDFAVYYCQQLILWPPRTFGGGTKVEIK",
    "Kd": "< 0.62 nM"
  }
]
